Taken from the supplement of paper PMC5579334.

Test system: S1507-2
Experiment: relative IC50 (inflection point of fitted dose-response curve, CellTox-Green cytotoxicity, 72 h; top asymptote may be below 50%); higher = less potent

Compound	relative IC50
Cn1cncc1[C@@](N)(c1ccc(Cl)cc1)c1ccc2c(c1)c(-c1cccc(Cl)c1)cc(=O)n2C	> 10 µM
CC(C)Cn1cnc2c(N)nc3ccccc3c21	> 2.5 µM
C=CC[C@@H]1/C=C(\C)C[C@H](C)C[C@H](OC)[C@H]2O[C@@](O)(C(=O)C(=O)N3CCCC[C@H]3C(=O)O[C@H](/C(C)=C/[C@@H]3CC[C@@H](O)[C@H](OC)C3)[C@H](C)[C@@H](O)CC1=O)[C@H](C)C[C@@H]2OC	> 10 µM
CCCCC/C=C/C=C1/C(=O)C=C[C@@H]1C/C=C\CCCC(=O)O [15D-PGJ2]	> 0.8 µM

====

Examples of compounds with documented relative IC50 follow.
System: YST-1
Experiment: relative IC50 (inflection point of fitted dose-response curve, CellTiter-Glo viability, 72 h; top asymptote may be below 50% inhibition); higher = less potent

Compound	relative IC50
NC(=O)c1cccc(-c2cccc(OC(=O)NC3CCCCC3)c2)c1	> 1 µM
Cc1c(C(=O)Nc2ccc(N3C[C@@H](C)O[C@@H](C)C3)nc2)cccc1-c1ccc(OC(F)(F)F)cc1	> 10 µM
CNC(=O)c1ccc(N2C(=S)N(c3ccc(C#N)c(C(F)(F)F)c3)C(=O)C23CCC3)cc1F	> 10 µM
Cn1cnc2c(F)c(Nc3ccc(Br)cc3Cl)c(C(=O)NOCCO)cc21	> 10 µM
CC(C)Cn1cnc2c(N)nc3ccccc3c21	> 2.5 µM
COCC1(CO)C(=O)C2CCN1CC2 (stereo unspecified)	> 10 µM

====

System: YST-1
Assay: % inhibition of CellTiter-Glo viability at highest tested concentration (72 h), relative to DMSO and benzethonium chloride controls; higher = more inhibition
Examples of molecules with documented % inhibition follow.
Attribute Measured: % inhibition

Molecule	Result
CN1CCN(c2nc(C3=C(c4c[nH]c5ccccc45)C(=O)NC3=O)c3ccccc3n2)CC1 [Sotrastaurin] (max concentration tested 10000 nM)	17.7%
COC(=O)C[C@](O)(CCCC(C)(C)O)C(=O)O[C@@H]1C(OC)=C[C@]23CCCN2CCc2cc4c(cc2[C@H]13)OCO4 [Omacetaxine] (max concentration tested 10000 nM)	99.5%
COc1cc2c(Oc3ccc(NC(=O)C4(C(=O)Nc5ccc(F)cc5)CC4)cc3F)ccnc2cc1OCCCN1CCOCC1 [Foretinib] (max concentration tested 1000 nM)	52.2%

====

System: HSC1 (primary human Schwann cells)
Test: % inhibition of CellTiter-Glo viability at highest tested concentration (72 h), relative to DMSO and benzethonium chloride controls; higher = more inhibition
Examples of molecules with documented % inhibition follow.

Molecule	% inhibition (%)
CC1(COc2ccc3c(c2)ncn3-c2ccc3cccc(N4CCC(N)CC4)c3n2)COC1 [Crenolanib] (max concentration tested 10000 nM)	84.7
CCOC(=O)CCNc1cc(N2CCc3ccccc3CC2)nc(-c2ccccn2)n1 [GSK-J4] (max concentration tested 100000 nM)	95.8
COc1cc(F)c(F)c(Nc2ccc(I)cc2F)c1NS(=O)(=O)C1(C[C@H](O)CO)CC1 [Refametinib] (max concentration tested 10000 nM)	69.2
C=CC[C@@H]1/C=C(\C)C[C@H](C)C[C@H](OC)[C@H]2O[C@@](O)(C(=O)C(=O)N3CCCC[C@H]3C(=O)O[C@H](/C(C)=C/[C@@H]3CC[C@@H](O)[C@H](OC)C3)[C@H](C)[C@@H](O)CC1=O)[C@H](C)C[C@@H]2OC [Tacrolimus] (max concentration tested 10000 nM)	19.9
Cn1nnc2c(C(N)=O)ncn2c1=O [Temozolomide] (max concentration tested 10000 nM)	8.86
C[C@@H](Oc1cc(-c2cnn(C3CCNCC3)c2)cnc1N)c1c(Cl)ccc(F)c1Cl [Crizotinib] (max concentration tested 1000 nM)	21.3
Cc1cnc(NC(=O)Nc2cc(Br)c(C)cc2OC[C@@H]2CNCCO2)cn1 [Rabusertib] (max concentration tested 1000 nM)	11.3
CS(=O)(=O)c1ccc(C2=C(c3ccccc3)C(=O)OC2)cc1 [Rofecoxib] (max concentration tested 10000 nM)	2.15
CCc1cncnc1N1CCN(Cc2nc3ccc(C(F)(F)F)cc3[nH]2)CC1 (max concentration tested 10000 nM)	13.9
CC/C(=C(\c1ccccc1)c1ccc(OCCN(C)C)cc1)c1ccccc1 [Tamoxifen] (max concentration tested 10000 nM)	14.8
c1ccc([C@H]2CN3CCSC3=N2)cc1 [Levamisole] (max concentration tested 10000 nM)	-1.64
Cc1c(Cn2c(C)nc3c(C(=O)O)cc(N4CCOCC4)cc32)cccc1C(F)(F)F (max concentration tested 10000 nM)	4.46
COc1cc(O)c2c(c1)/C=C/C[C@H](O)[C@H](O)C(=O)/C=C\C[C@H](C)OC2=O [(5Z)-7-Oxozeaenol] (max concentration tested 10000 nM)	73.1
CC(C)(C)c1cc(NC(=O)Nc2ccc(-c3cn4c(n3)sc3cc(OCCN5CCOCC5)ccc34)cc2)no1 [Quizartinib] (max concentration tested 1000 nM)	47.8
C=C1C[C@@H]2[C@H](CC[C@]3(C)C(=O)CC[C@@H]23)[C@@]2(C)C=CC(=O)C=C12 [Exemestane] (max concentration tested 10000 nM)	3.19
CCc1cnn2c(NCc3ccc[n+]([O-])c3)cc(N3CCCC[C@H]3CCO)nc12 [Dinaciclib] (max concentration tested 1000 nM)	83.5
Cc1ccc(-n2nc(C(C)(C)C)cc2NC(=O)Nc2ccc(OCCN3CCOCC3)c3ccccc23)cc1 [Doramapimod] (max concentration tested 10000 nM)	26.7
CC[C@@H]1C(=O)N(C)c2cnc(Nc3ccc(C(=O)NC4CCN(C)CC4)cc3OC)nc2N1C1CCCC1 [BI 2536] (max concentration tested 1000 nM)	62.9
C[C@]1(c2nc3c(C(N)=O)cccc3[nH]2)CCCN1 [Veliparib] (max concentration tested 10000 nM)	14.6
